Biological target: HisH (Thermotoga maritima, UniProt Q9X0C8, C84S)
Sequence (Q9X0C8 1-201 C84S): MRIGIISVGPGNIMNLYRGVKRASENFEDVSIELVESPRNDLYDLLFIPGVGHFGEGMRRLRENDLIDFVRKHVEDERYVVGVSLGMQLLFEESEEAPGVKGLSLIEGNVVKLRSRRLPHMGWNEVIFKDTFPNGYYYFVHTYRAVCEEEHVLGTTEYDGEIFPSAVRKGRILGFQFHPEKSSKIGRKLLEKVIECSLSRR
Sequence (Q9X0C6 1-253 partner): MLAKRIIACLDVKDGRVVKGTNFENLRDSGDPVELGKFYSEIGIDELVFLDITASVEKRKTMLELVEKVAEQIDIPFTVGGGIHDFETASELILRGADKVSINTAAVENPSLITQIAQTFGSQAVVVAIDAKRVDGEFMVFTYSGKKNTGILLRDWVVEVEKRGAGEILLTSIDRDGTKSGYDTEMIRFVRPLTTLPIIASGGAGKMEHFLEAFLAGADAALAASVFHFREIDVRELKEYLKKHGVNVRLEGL
Test: biochemical
assay.readout: pKd
Answers are plain numbers, as −log10 of the molar value.

input: # pKd lookup, item NC(=O)CC[C@H](N)C(=O)O
output: 2.77

Entry source: paper PMC8115485
